Data origin, for the record: paper PMC11480844

The following variants are shown together with reported ratio to parent values.
B1: H2-Kb / B3 (parent)
chain 1: GQQVKQSSPSLTVQEGGISILNCDYENDMFDYFAWYKKYPDNSPTLLISVRSNVDKREDGRLTVFLNKSGKHFSLHITASQPEDTAVYLCAAGNTGYQNFYFGKGTSLTVIP
chain 2: DSGVVQSPRHIIKEKGGRSVLTCIPISGHSNVVWYQQTLGKELKFLIQHYEKVERDKGFLPSRFSVQQFDDYHSEMNMSALELEDSAMYFCASSSLQGARNQAPLFGEGTRLSVL
chain 3: not shown
chain 4: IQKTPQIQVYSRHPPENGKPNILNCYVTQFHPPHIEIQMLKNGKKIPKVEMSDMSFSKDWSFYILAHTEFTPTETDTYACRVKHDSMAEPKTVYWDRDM
chain 5: SIINFEKL

variants of: B1; experiment: % of reporter cells activated (NFAT-GFP), raw; details: with B3; scale: % of reporter cells activated; also: test concentration or dose not given here
readout name: ratio to parent

>>> print(df.to_string())
   mutation_key  reading
0   chain 5 I3V     0.59
1   chain 5 I3A    0.585
2   chain 5 S1P    0.303
3   chain 5 I3Q    0.614
4   chain 5 E6K    0.587
5   chain 5 K7N    0.601
